Test details: Clinical food-effect study: pharmacokinetics of a 100 mg tasimelteon capsule with or without a high-fat/high-calorie meal
Format: in vivo, human
Assay context: both sexes, human, in vivo, po, 100 mg, healthy subjects, 100 mg oral capsule, fasted conditions
Description: A clinical study was undertaken to investigate the effects of food on administration of tasimelteon. Specifically, the primary objective of the study was to investigate the influence of food (high-calorie/high-fat) on the pharmacokinetics of 100 mg of tasimelteon in healthy subjects. This was a single-center, open-label, crossover design which lasted up to 5 weeks. 26 Healthy male and female subjects (18-50 years old) were enrolled in the study. […]
Assay endpoint: Cmax (ng/mL)
Output spec: scalar in ng/mL, unitless text.

What measured Cmax goes with `CCC(=O)NC[C@@H]1C[C@H]1c1cccc2c1CCO2` ?
786

###

Test details: Clinical food-effect study: pharmacokinetics of a 100 mg tasimelteon capsule with or without a high-fat/high-calorie meal
Assay type: in vivo, human
Assay context: both sexes, human, in vivo, po, 100 mg, healthy subjects, 100 mg oral capsule, fed conditions (high-fat/high-calorie meal); read-out: median Tmax
Assay endpoint: Tmax (h)
Output spec: scalar in h, unitless text.

What measured Tmax goes with CCC(=O)NC[C@@H]1C[C@H]1c1cccc2c1CCO2 [tasimelteon] ?
2.5

###

Test details: Clinical food-effect study: pharmacokinetics of a 100 mg tasimelteon capsule with or without a high-fat/high-calorie meal
Assay type: in vivo, human
Assay context: both sexes, human, in vivo, po, 100 mg, healthy subjects, 100 mg oral capsule, fed conditions (high-fat/high-calorie meal)
Assay endpoint: Cmax (ng/mL)
Output spec: scalar in ng/mL, unitless text.

What measured Cmax goes with CCC(=O)NC[C@@H]1C[C@H]1c1cccc2c1CCO2 [tasimelteon] ?
445
